- Tested on: human histamine H3 receptor (Homo sapiens, UniProt Q9Y5N1)
- Construct: methotrexate-amplified clone RAGE-H3
- Sequence (Q9Y5N1 whole entry): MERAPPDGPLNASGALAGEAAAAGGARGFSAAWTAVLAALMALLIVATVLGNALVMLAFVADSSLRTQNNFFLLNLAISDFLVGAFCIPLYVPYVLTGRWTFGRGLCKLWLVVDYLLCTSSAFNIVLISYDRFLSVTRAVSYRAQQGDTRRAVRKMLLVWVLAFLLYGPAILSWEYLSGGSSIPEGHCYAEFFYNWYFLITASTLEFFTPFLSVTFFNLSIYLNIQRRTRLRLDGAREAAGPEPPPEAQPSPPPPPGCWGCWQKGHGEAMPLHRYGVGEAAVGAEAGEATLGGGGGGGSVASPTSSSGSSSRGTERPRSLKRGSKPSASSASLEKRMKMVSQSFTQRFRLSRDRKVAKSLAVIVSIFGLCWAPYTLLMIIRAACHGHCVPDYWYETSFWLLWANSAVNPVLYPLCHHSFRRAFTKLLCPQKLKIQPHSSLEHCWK
- Test details: Calcium mobilization assay (FLIPR), inhibition of (R)-α-methylhistamine-stimulated Ca2+ flux in RAGE-H3 cells
- Conditions: determined using FLIPR
pIC50: −log10 of the molar value.
Quantity: pIC50

Use these answered entries as a reference point.
- COc1ccc2c(c1)cc(C)n2-c1ccc(C#CCCN2CCCC2)cc1 [Example 17]: > 7.00
- c1ccc2c(c1)ccn2-c1ccc(OCCCN2CCCC2)cc1 [Example 4]: > 7.00
- Clc1ccc2c(ccn2-c2ccc(OCCCN3CCCC3)cc2)c1 [Example 10]: > 6.00
- COc1cc(-n2c(C)cc3ccccc32)ccc1OCCCN1CCCC1 [Example 14]: > 6.00
- Clc1cccc2c1ccn2-c1ccc(OCCCN2CCCC2)cc1 [Example 8]: > 6.00

Give the value of pIC50 reported for the following: COc1ccc2c(c1)cc(C)n2-c1ccc(OCCCN2CCCC2)cc1 [Example 5]
> 7.00

Give the value of pIC50 reported for the following: c1ccc2c(c1)cc(C1CC1)n2-c1ccc(OCCCN2CCCC2)cc1 [Example 37]
> 7.00

Give the value of pIC50 reported for the following: COc1ccc2c(ccn2-c2ccc(OCCCN3CCCC3)cc2)c1 [Example 9]
> 6.00

Give the value of pIC50 reported for the following: Brc1ccc2c(ccn2-c2ccc(OCCCN3CCCC3)cc2)c1 [Example 7]
> 6.00

Give the value of pIC50 reported for the following: Cc1ccc2c(ccn2-c2ccc(OCCCN3CCCC3)cc2)c1 [Example 6]
> 6.00

Give the value of pIC50 reported for the following: Cc1cc2ccccc2n1-c1ccc(OCCCN2CCCC2)c(Cl)c1 [Example 15]
> 6.00
